Target: T1, TAM-AT1-AT2 Baz2B (Homo sapiens, UniProt Q9UIF8 721-884)
T1 sequence: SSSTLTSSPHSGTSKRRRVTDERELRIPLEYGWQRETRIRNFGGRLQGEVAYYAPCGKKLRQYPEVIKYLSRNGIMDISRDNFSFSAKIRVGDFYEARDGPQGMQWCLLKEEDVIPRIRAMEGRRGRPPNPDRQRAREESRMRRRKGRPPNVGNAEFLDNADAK
Assay: EMSA; mutant series; EMSA: 20 mM HEPES pH 7.5, 30 mM KCl, 1 mM EDTA, 10 mM (NH4)2SO4, 1 mM DTT, 4 C, 10 nM probe; MST: same plus 0.1 ug/ml BSA, 5 nM probe, 25 C; GST-AT-hook and bromodomain EMSA as in cited refs
Settings: protein: recombinant; tags: His6
RECORDED_ENDPOINT: pKd
Please report pKd as the negative decimal logarithm of the molar concentration, giving only the number.

Ask: For the binder shown here, ATCAGTTCTCCGGGTTGTCAGGTCGACCAGTTGTTCCTTTGAGGT (ssDNA) [45 nt ssDNA FLP015] , give the reported pKd.
Reply: 6.64
